Condition: human, in vivo, inhaled or intranasal, 90 mg
Readout Type: Cmax (ng/mL)
Write the number in ng/mL without appending the unit.

### Prompt Find the recorded Cmax belonging to C[C@@H]1NC(=O)CNC(=O)[C@H](CCC(=O)O)NC(=O)[C@@H]2CCCN2C(=O)[C@H]([C@@H](C)O)NC(=O)[C@H](CCC(=O)O)NC(=O)[C@H](CCCNC(=N)N)NC(=O)[C@H](CCC(N)=O)NC(=O)CNC(=O)[C@@H](N)CSSC[C@@H](C(=O)O)NC(=O)[C@H](Cc2ccc(O)cc2)NC(=O)[C@H](Cc2c[nH]c3ccccc23)NC(=O)[C@@H]2CCCN2C(=O)[C@H](CCCCN)NC(=O)[C@H](C)NC(=O)[C@H](CCC(=O)O)NC1=O [AP301] and report it.
### Response 2.4

* * *

Condition: human, in vivo, inhaled or intranasal, 30 mg
Readout Type: Cmax

### Prompt Using the record for C[C@@H]1NC(=O)CNC(=O)[C@H](CCC(=O)O)NC(=O)[C@@H]2CCCN2C(=O)[C@H]([C@@H](C)O)NC(=O)[C@H](CCC(=O)O)NC(=O)[C@H](CCCNC(=N)N)NC(=O)[C@H](CCC(N)=O)NC(=O)CNC(=O)[C@@H](N)CSSC[C@@H](C(=O)O)NC(=O)[C@H](Cc2ccc(O)cc2)NC(=O)[C@H](Cc2c[nH]c3ccccc23)NC(=O)[C@@H]2CCCN2C(=O)[C@H](CCCCN)NC(=O)[C@H](C)NC(=O)[C@H](CCC(=O)O)NC1=O [AP301] , report its Cmax.
### Response 0.3 ng/mL

* * *

Condition: human, in vivo, inhaled or intranasal, 60 mg
Readout Type: AUC(0-t) (ng·h/mL)
Write the value in ng·h/mL as a bare number.

### Prompt What value of measured AUC(0-t) is listed for C[C@@H]1NC(=O)CNC(=O)[C@H](CCC(=O)O)NC(=O)[C@@H]2CCCN2C(=O)[C@H]([C@@H](C)O)NC(=O)[C@H](CCC(=O)O)NC(=O)[C@H](CCCNC(=N)N)NC(=O)[C@H](CCC(N)=O)NC(=O)CNC(=O)[C@@H](N)CSSC[C@@H](C(=O)O)NC(=O)[C@H](Cc2ccc(O)cc2)NC(=O)[C@H](Cc2c[nH]c3ccccc23)NC(=O)[C@@H]2CCCN2C(=O)[C@H](CCCCN)NC(=O)[C@H](C)NC(=O)[C@H](CCC(=O)O)NC1=O [AP301] ?
### Response 0.93

* * *

Condition: human, in vivo, inhaled or intranasal, 12 mg
Readout Type: AUC(0-t) (ng·h/mL)
Reply with just the number (in ng·h/mL).

### Prompt Can you share its AUC(0-t)? I mean this compound: `C[C@@H]1NC(=O)CNC(=O)[C@H](CCC(=O)O)NC(=O)[C@@H]2CCCN2C(=O)[C@H]([C@@H](C)O)NC(=O)[C@H](CCC(=O)O)NC(=O)[C@H](CCCNC(=N)N)NC(=O)[C@H](CCC(N)=O)NC(=O)CNC(=O)[C@@H](N)CSSC[C@@H](C(=O)O)NC(=O)[C@H](Cc2ccc(O)cc2)NC(=O)[C@H](Cc2c[nH]c3ccccc23)NC(=O)[C@@H]2CCCN2C(=O)[C@H](CCCCN)NC(=O)[C@H](C)NC(=O)[C@H](CCC(=O)O)NC1=O`
### Response 0.0333

* * *

Condition: human, in vivo, inhaled or intranasal, 12 mg
Readout Type: Cmax (ng/mL)
Write the value in ng/mL as a bare number.

### Prompt Reported Cmax, compound `C[C@@H]1NC(=O)CNC(=O)[C@H](CCC(=O)O)NC(=O)[C@@H]2CCCN2C(=O)[C@H]([C@@H](C)O)NC(=O)[C@H](CCC(=O)O)NC(=O)[C@H](CCCNC(=N)N)NC(=O)[C@H](CCC(N)=O)NC(=O)CNC(=O)[C@@H](N)CSSC[C@@H](C(=O)O)NC(=O)[C@H](Cc2ccc(O)cc2)NC(=O)[C@H](Cc2c[nH]c3ccccc23)NC(=O)[C@@H]2CCCN2C(=O)[C@H](CCCCN)NC(=O)[C@H](C)NC(=O)[C@H](CCC(=O)O)NC1=O` : ____
### Response 0.4

* * *

Condition: human, in vivo, inhaled or intranasal, 30 mg
Readout Type: AUC(0-t) (ng·h/mL)
Please state the figure in ng·h/mL; there is no need to write the unit.

### Prompt Could you share which AUC(0-t) value was measured for `C[C@@H]1NC(=O)CNC(=O)[C@H](CCC(=O)O)NC(=O)[C@@H]2CCCN2C(=O)[C@H]([C@@H](C)O)NC(=O)[C@H](CCC(=O)O)NC(=O)[C@H](CCCNC(=N)N)NC(=O)[C@H](CCC(N)=O)NC(=O)CNC(=O)[C@@H](N)CSSC[C@@H](C(=O)O)NC(=O)[C@H](Cc2ccc(O)cc2)NC(=O)[C@H](Cc2c[nH]c3ccccc23)NC(=O)[C@@H]2CCCN2C(=O)[C@H](CCCCN)NC(=O)[C@H](C)NC(=O)[C@H](CCC(=O)O)NC1=O` ?
### Response 0.0183

* * *

Condition: human, in vivo, inhaled or intranasal, 60 mg
Readout Type: Tmax (min)
Give the value, in units of min, as a plain number.

### Prompt Quick one: Tmax for C[C@@H]1NC(=O)CNC(=O)[C@H](CCC(=O)O)NC(=O)[C@@H]2CCCN2C(=O)[C@H]([C@@H](C)O)NC(=O)[C@H](CCC(=O)O)NC(=O)[C@H](CCCNC(=N)N)NC(=O)[C@H](CCC(N)=O)NC(=O)CNC(=O)[C@@H](N)CSSC[C@@H](C(=O)O)NC(=O)[C@H](Cc2ccc(O)cc2)NC(=O)[C@H](Cc2c[nH]c3ccccc23)NC(=O)[C@@H]2CCCN2C(=O)[C@H](CCCCN)NC(=O)[C@H](C)NC(=O)[C@H](CCC(=O)O)NC1=O [AP301] ?
### Response 5

* * *

Condition: human, in vivo, inhaled or intranasal, 120 mg
Readout Type: Tmax

### Prompt Returns the measured Tmax for the input compound. Input: `C[C@@H]1NC(=O)CNC(=O)[C@H](CCC(=O)O)NC(=O)[C@@H]2CCCN2C(=O)[C@H]([C@@H](C)O)NC(=O)[C@H](CCC(=O)O)NC(=O)[C@H](CCCNC(=N)N)NC(=O)[C@H](CCC(N)=O)NC(=O)CNC(=O)[C@@H](N)CSSC[C@@H](C(=O)O)NC(=O)[C@H](Cc2ccc(O)cc2)NC(=O)[C@H](Cc2c[nH]c3ccccc23)NC(=O)[C@@H]2CCCN2C(=O)[C@H](CCCCN)NC(=O)[C@H](C)NC(=O)[C@H](CCC(=O)O)NC1=O`
### Response 2.5 min

* * *

Condition: human, in vivo, inhaled or intranasal, 120 mg
Readout Type: Cmax (ng/mL)
Numbers only here, please. The scale is ng/mL.

### Prompt I have this compound here, `C[C@@H]1NC(=O)CNC(=O)[C@H](CCC(=O)O)NC(=O)[C@@H]2CCCN2C(=O)[C@H]([C@@H](C)O)NC(=O)[C@H](CCC(=O)O)NC(=O)[C@H](CCCNC(=N)N)NC(=O)[C@H](CCC(N)=O)NC(=O)CNC(=O)[C@@H](N)CSSC[C@@H](C(=O)O)NC(=O)[C@H](Cc2ccc(O)cc2)NC(=O)[C@H](Cc2c[nH]c3ccccc23)NC(=O)[C@@H]2CCCN2C(=O)[C@H](CCCCN)NC(=O)[C@H](C)NC(=O)[C@H](CCC(=O)O)NC1=O` , and I need its recorded Cmax.
### Response 2.2

* * *

Condition: human, in vivo, inhaled or intranasal, 60 mg
Readout Type: Cmax (ng/mL)
Return type: number; implicit unit ng/mL.

### Prompt Please report the recorded Cmax for `C[C@@H]1NC(=O)CNC(=O)[C@H](CCC(=O)O)NC(=O)[C@@H]2CCCN2C(=O)[C@H]([C@@H](C)O)NC(=O)[C@H](CCC(=O)O)NC(=O)[C@H](CCCNC(=N)N)NC(=O)[C@H](CCC(N)=O)NC(=O)CNC(=O)[C@@H](N)CSSC[C@@H](C(=O)O)NC(=O)[C@H](Cc2ccc(O)cc2)NC(=O)[C@H](Cc2c[nH]c3ccccc23)NC(=O)[C@@H]2CCCN2C(=O)[C@H](CCCCN)NC(=O)[C@H](C)NC(=O)[C@H](CCC(=O)O)NC1=O` .
### Response 2.2

* * *

Condition: human, in vivo, inhaled or intranasal, 120 mg
Readout Type: AUC(0-t)
Express your answer as a number followed by its unit.

### Prompt Using the record for `C[C@@H]1NC(=O)CNC(=O)[C@H](CCC(=O)O)NC(=O)[C@@H]2CCCN2C(=O)[C@H]([C@@H](C)O)NC(=O)[C@H](CCC(=O)O)NC(=O)[C@H](CCCNC(=N)N)NC(=O)[C@H](CCC(N)=O)NC(=O)CNC(=O)[C@@H](N)CSSC[C@@H](C(=O)O)NC(=O)[C@H](Cc2ccc(O)cc2)NC(=O)[C@H](Cc2c[nH]c3ccccc23)NC(=O)[C@@H]2CCCN2C(=O)[C@H](CCCCN)NC(=O)[C@H](C)NC(=O)[C@H](CCC(=O)O)NC1=O` , report its AUC(0-t).
### Response 0.877 ng·h/mL
